Test system: crosslinked 50S subunit-s^4TCPm complex
assay info: Antibiotic inhibition of peptidyl transferase activity of the crosslinked complex (s^4TCPm-50S)
Type: biochemical, E. coli
details: antibiotics 0.1 mM (neomycin 0.01 mM, puromycin 1 mM); CACCA-(N-Ac-Phe) 0.3 μM, 4 minutes
parameter: inhibition of peptidyl transferase reactivity of the crosslinked complex

1. O=C(N[C@H](CO)[C@H](O)c1ccc([N+](=O)[O-])cc1)C(Cl)Cl    effectively inhibited
2. CO[C@@H]1[C@@H](O[C@@H]2O[C@H](C)[C@@H](O[C@H]3C[C@@](C)(O)[C@@H](OC(=O)CC(C)C)[C@H](C)O3)[C@H](N(C)C)[C@H]2O)[C@@H](CC=O)C[C@@H](C)C(=O)/C=C/[C@@H]2O[C@@H]2C[C@@H](C)OC(=O)C[C@H]1OC(C)=O    effectively inhibited
